Measured values drawn from patent US20250368745A1 for this set.

# STUDY TARGET: T1, human IL-18BP (human, UniProt O95998 31-194)
# T1 construct: UniProt printed as 095998; also called hIL-18BP
# T1 sequence: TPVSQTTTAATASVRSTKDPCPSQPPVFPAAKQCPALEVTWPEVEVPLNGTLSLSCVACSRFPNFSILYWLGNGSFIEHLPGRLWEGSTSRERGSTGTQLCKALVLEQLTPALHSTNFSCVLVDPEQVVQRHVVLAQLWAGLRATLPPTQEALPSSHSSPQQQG
# PROTOCOL TEXT: BLI, apparent KD
Kd values, listed per item

# BINDER, Kd, nM
rows = [
    ("SA301a HC-S54D (antibody, name in Kabat numbering, V domains shown, IgG1 kappa) VH: QVQLQESGPGLVKPSQTLSLTCTVSGYSITSDYNSHWIRQPPGKGLEWIGYIHYDGSTNYNPSLKSRVTISRDTSKNQFSLKLSSVTAADTAVYYCARNYGSIYVNYFDYWGQGTLVTVSS VL: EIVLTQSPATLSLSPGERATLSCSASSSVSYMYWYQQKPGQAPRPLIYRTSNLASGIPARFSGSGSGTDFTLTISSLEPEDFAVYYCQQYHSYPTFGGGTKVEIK", 0.22),
    ("SA301a HC-S56G (antibody, name in Kabat numbering, V domains shown, IgG1 kappa) VH: QVQLQESGPGLVKPSQTLSLTCTVSGYSITSDYNSHWIRQPPGKGLEWIGYIHYSGGTNYNPSLKSRVTISRDTSKNQFSLKLSSVTAADTAVYYCARNYGSIYVNYFDYWGQGTLVTVSS VL: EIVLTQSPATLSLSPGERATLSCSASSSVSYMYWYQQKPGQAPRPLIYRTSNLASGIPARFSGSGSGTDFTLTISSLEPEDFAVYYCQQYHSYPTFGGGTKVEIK", 0.46),
    ("SA301a HC-Y59V (antibody, name in Kabat numbering, V domains shown, IgG1 kappa) VH: QVQLQESGPGLVKPSQTLSLTCTVSGYSITSDYNSHWIRQPPGKGLEWIGYIHYSGSTNVNPSLKSRVTISRDTSKNQFSLKLSSVTAADTAVYYCARNYGSIYVNYFDYWGQGTLVTVSS VL: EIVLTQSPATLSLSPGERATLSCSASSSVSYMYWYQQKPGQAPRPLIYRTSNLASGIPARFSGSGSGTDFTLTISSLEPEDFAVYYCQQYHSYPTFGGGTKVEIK", 0.38),
    ("SA301a HC-G55A (antibody, name in Kabat numbering, V domains shown, IgG1 kappa) VH: QVQLQESGPGLVKPSQTLSLTCTVSGYSITSDYNSHWIRQPPGKGLEWIGYIHYSASTNYNPSLKSRVTISRDTSKNQFSLKLSSVTAADTAVYYCARNYGSIYVNYFDYWGQGTLVTVSS VL: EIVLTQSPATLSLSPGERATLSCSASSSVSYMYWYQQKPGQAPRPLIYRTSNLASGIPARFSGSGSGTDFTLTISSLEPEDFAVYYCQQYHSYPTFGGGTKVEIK", 0.75),
]
